Values compiled from patent US8088819B2.

Target: hPPARdelta (Homo sapiens, UniProt Q03181)
Construct: expressed in transfected cells; host or cells: COS-7 (monkey kidney fibroblasts)
Sequence (Q03181 211-439 limits assumed): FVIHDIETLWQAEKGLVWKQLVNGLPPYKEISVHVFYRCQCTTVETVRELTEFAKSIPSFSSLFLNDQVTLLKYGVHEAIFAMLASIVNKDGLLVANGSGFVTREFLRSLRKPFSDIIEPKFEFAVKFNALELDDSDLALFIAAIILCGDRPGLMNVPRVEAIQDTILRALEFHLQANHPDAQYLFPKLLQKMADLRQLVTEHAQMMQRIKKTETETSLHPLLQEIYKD
Test: PPAR activation: Gal4-hPPARδ chimera luciferase transactivation in COS-7 cells, Method 1
Type: cell-based
Conditions: COS-7, 24 h
OBSERVABLE: EC50 (nM)

In the examples that follow, each entry is paired with its recorded EC50.
CC(C)(Oc1ccc(CCC(=NO)c2ccc(-c3ccc(C(F)(F)F)cc3)s2)c(Cl)c1Cl)C(=O)O (mixture of isomers)	45
CCC(Oc1ccc(CCC(OCc2ccccc2)c2ccc(-c3ccc(C(F)(F)F)cc3)s2)cc1F)C(=O)O (stereo not shown)	216

P = CC(C)(Oc1ccc(CCC(=O)c2ccc(-c3ccc(C(F)(F)F)cc3)s2)cc1Cl)C(=O)O
Q = O=C(O)COc1ccc(CCC(=O)c2ccc(-c3ccc(C(F)(F)F)cc3)s2)cc1Br
**Q:** When P and Q are compared, which has the higher number for EC50? Bench note: the answer is the label of the chosen record.
**A:** Q

I = CC(C)(Oc1ccc(CCC(O)c2ccc(-c3ccc(C(F)(F)F)cc3)s2)c(Cl)c1Cl)C(=O)O (stereo not shown)
II = CC(C)(Oc1ccc(CCC(=O)c2ccc(-c3ccc(C(F)(F)F)cc3)s2)cc1F)C(=O)O
**Q:** When I and II are compared, which has the higher number for EC50? Bench note: the answer is the label of the chosen record.
**A:** I

A = CCC(Oc1ccc(CCC(=O)c2ccc(-c3ccc(C(F)(F)F)cc3)s2)c(Cl)c1Cl)C(=O)O (stereo not shown)
B = CC(C)(Oc1ccc(CCC(OCc2ccccc2)c2cc(-c3ccc(C(F)(F)F)cc3)cs2)c(Cl)c1Cl)C(=O)O (stereo not shown)
**Q:** Dear colleague, could you let me know whether A or B has the lower recorded EC50? Thanks. Bench note: the answer is the label of the chosen record.
**A:** B
(B: 6 nM, A: 19 nM)

I = CC(C)(Oc1ccc(CCC(=O)c2ccc(-c3ccc(C(F)(F)F)cc3)s2)c(F)c1F)C(=O)O
II = CC(C)(Oc1ccc(CCC(=O)c2ccc(-c3ccc(OC(F)(F)F)cc3)s2)c(Cl)c1Cl)C(=O)O
III = CC(C)(Oc1ccc(CCC(=O)c2ccc(-c3ccc(C(F)(F)F)cc3)s2)cc1Br)C(=O)O
IV = Cc1cc(CCC(=O)c2ccc(-c3ccc(C(F)(F)F)cc3)s2)cc(C)c1OC(C)(C)C(=O)O
**Q:** Sort ascending by EC50. Kindly provide the labels arranged according to the requested ordering.
**A:** IV, III, I, II
(IV: 6 nM, III: 9 nM, I: 18 nM, II: 27 nM)

---

Target: hPPARdelta (Homo sapiens, UniProt Q03181)
Construct: expressed in transfected cells; host or cells: COS-7 (monkey kidney fibroblasts)
Assay: PPAR activation: Gal4-hPPARδ chimera luciferase transactivation in COS-7 cells, Method 1
Assay type: cell-based
Settings: COS-7, 24 h
Protocol: The activation of the PPARs was evaluated in vitro on a line of monkey kidney fibroblasts (COS-7) by measuring the transcriptional activity of chimeras constituted of the DNA binding domain of the Gal4 transcription factor of yeast and the ligand binding domain of the various PPARs. The compounds were tested at doses between 10^−5 and […] on the chimeras Gal4-PPARα, γ or δ, and the corresponding EC50 values were determined. […]
OBSERVABLE: EC50 (nM)

CCC(Oc1ccc(CCC(=O)c2ccc(-c3ccc(C(F)(F)F)cc3)s2)cc1F)C(=O)O (stereo not shown) [Compound 29]	37
CC(C)(Oc1ccc(CCC(=O)c2ccc(-c3ccc(C(F)(F)F)cc3)s2)c(Cl)c1Cl)C(=O)O [Compound 2]	7
CC(C)(Oc1ccc(CCC(=O)c2cc(-c3ccc(C(F)(F)F)cc3)cs2)c(Cl)c1Cl)C(=O)O [Compound 11]	3

1 = CC(C)(Oc1ccc(CCC(=O)c2ccc(-c3ccc(C(F)(F)F)cc3)s2)c(Cl)c1)C(=O)O [Compound 21]
2 = O=C(O)COc1ccc(CCC(OCc2ccccc2)c2ccc(-c3ccc(C(F)(F)F)cc3)s2)cc1F (stereo not shown) [Compound 27]
**Q:** When 1 and 2 are compared, which has the higher number for EC50? Bench note: the answer is the label of the chosen record.
**A:** 2
(2: 589 nM, 1: 8 nM)

1 = O=C(O)COc1ccc(CCC(=O)c2ccc(-c3ccc(C(F)(F)F)cc3)s2)cc1 [Compound 69]
2 = CCC(Oc1ccc(CCC(=O)c2ccc(-c3ccc(C(F)(F)F)cc3)s2)cc1)C(=O)O (stereo not shown) [Compound 65]
**Q:** When 1 and 2 are compared, which has the higher number for EC50? Bench note: the answer is the label of the chosen record.
**A:** 1
(1: 292 nM, 2: 109 nM)
